target: UniProtKB P35968; assay: VEGFR-2 inhibition assay; assay type: cell-based
Sequence (P35968 20-1356): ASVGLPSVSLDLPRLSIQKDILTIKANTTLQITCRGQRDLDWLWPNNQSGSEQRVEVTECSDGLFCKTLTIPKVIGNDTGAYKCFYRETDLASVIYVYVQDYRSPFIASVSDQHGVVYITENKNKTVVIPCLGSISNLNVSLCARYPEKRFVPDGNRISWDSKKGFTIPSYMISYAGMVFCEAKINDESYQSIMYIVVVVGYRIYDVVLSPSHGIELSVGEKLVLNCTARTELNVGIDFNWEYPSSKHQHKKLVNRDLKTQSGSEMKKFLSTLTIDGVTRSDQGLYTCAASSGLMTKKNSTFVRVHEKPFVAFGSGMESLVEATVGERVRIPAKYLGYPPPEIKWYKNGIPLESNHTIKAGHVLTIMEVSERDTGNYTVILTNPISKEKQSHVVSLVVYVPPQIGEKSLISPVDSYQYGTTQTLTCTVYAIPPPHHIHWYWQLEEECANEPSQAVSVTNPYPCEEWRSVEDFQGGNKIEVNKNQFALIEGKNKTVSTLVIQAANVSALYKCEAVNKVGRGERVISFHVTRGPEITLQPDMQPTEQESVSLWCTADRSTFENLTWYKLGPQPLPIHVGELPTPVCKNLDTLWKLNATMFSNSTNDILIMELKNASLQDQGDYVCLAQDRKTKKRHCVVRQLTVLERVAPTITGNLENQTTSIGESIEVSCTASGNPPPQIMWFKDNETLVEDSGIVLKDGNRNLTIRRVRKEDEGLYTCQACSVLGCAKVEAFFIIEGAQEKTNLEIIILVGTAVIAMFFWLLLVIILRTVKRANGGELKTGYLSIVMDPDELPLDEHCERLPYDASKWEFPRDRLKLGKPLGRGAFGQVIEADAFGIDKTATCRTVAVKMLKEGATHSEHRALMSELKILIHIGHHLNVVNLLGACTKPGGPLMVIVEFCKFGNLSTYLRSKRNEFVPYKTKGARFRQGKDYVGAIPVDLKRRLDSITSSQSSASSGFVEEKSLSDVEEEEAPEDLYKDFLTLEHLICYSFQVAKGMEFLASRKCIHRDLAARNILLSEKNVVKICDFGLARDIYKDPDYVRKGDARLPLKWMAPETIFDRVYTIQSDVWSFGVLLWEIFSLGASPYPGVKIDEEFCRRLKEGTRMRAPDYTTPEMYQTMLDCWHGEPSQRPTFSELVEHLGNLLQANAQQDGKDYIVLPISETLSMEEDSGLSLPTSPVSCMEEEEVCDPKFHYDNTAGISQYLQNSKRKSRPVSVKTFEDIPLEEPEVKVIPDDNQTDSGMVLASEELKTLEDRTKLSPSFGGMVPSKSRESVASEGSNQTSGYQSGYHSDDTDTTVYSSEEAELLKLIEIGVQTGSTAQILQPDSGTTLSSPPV
pIC50: −log10 of the molar value.
observedProperty: pIC50

[[record]]
compound = "O=C1Nc2ccc(OC(F)(F)F)cc2C1n1nc(-c2c(O)c3ccccc3oc2=O)cc1-c1ccc(F)cc1 (stereo not shown)"
assaytarget = "UniProtKB P35968"
measvalue = 6.19

